B1: TPR 5TU (parent)
chain: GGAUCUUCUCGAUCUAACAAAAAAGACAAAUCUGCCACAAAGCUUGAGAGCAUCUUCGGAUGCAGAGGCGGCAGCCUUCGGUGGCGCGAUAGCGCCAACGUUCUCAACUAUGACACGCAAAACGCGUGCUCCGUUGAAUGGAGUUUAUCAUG

variants of: B1; test: polymerase ribozyme fitness, log enrichment relative to wild type (log ratio); higher = more active; in vitro selection for triplet polymerase activity
Variants at the floor of the assay were thinned out.
quantity: polymerase ribozyme fitness (log ratio)
Lab note: record the figure alone, no unit after it.

# lookup: polymerase ribozyme fitness (log ratio) of A21G C96U
0.682

Which polymerase ribozyme fitness (log ratio) is listed for G50A G86A ?
-3.01

Using the record for U55A C57U C85U A91G G141U , report its polymerase ribozyme fitness (log ratio).
-1.7

What does the data say about its polymerase ribozyme fitness (log ratio)? Entry: C54U G94A
-0.351

For the variant G71C C85U , what polymerase ribozyme fitness (log ratio) is on record?
-3.27

Item C14A C95U has what recorded polymerase ribozyme fitness (log ratio)?
-1.38

Field request: polymerase ribozyme fitness (log ratio) | item: C8U C123G
-3.42

Dear colleague, I am looking for the recorded polymerase ribozyme fitness (log ratio) of the following variant: G50U A122G
-0.236

For the variant shown here, G88A A89G , give the reported polymerase ribozyme fitness (log ratio).
-3.67

Endpoint output: polymerase ribozyme fitness (log ratio) of G48C U55A . Value?
-0.498

If you can, please state the reported polymerase ribozyme fitness (log ratio) value of C38U C87G .
-3.75

Return reported polymerase ribozyme fitness (log ratio); argument: C96A C105G
-1.4

Dear colleague, I am looking for the recorded polymerase ribozyme fitness (log ratio) of the following variant: U53A G100U
-3.41

Entry A49G A122U G124U : reported polymerase ribozyme fitness (log ratio) = ?
-0.811

Look up polymerase ribozyme fitness (log ratio): A16C C32U
-2.43

Quick one: polymerase ribozyme fitness (log ratio) for U61G C75U U144C ?
-1.52

What value of measured polymerase ribozyme fitness (log ratio) is listed for U55A C85A G133C ?
-3.05

State the recorded polymerase ribozyme fitness (log ratio) for this entry: U55A A150C
-3.6

I am curious: what polymerase ribozyme fitness (log ratio) value has been reported for G50A A97G A138C ?
-4.01

Please give the measured polymerase ribozyme fitness (log ratio) for this variant: G11U G86C
-3.55

Look up polymerase ribozyme fitness (log ratio): C85U A98C G117C
0.631

Field request: polymerase ribozyme fitness (log ratio) | item: G84U A142G
-3.27
